test: in vivo; details: zebrafish, in vivo, 15 µg/ml, Trunk concentration, 5 d.p.f.; immersion 1 hour
Parameter concentration at 1 h: see the listing below.

{"columns": ["molecule", "concentration at 1 h"],
 "data": [
  ["O=C(CCCN1CCC(O)(c2ccc(Cl)cc2)CC1)c1ccc(F)cc1", "104000 ng/g"],
  ["CN(C)CCOC(c1ccccc1)c1ccccc1 [Diphenhydramine]", "21100 ng/g"]
]}

---

Parameter concentration at 1 h: see the listing below.
experiment: in vivo; settings: zebrafish, in vivo, 15 µg/ml, Head concentration, 5 d.p.f.; immersion 1 hour
measured_attribute: concentration at 1 h (ng/g)

{"columns": ["compound", "measured_attribute", "experimental_result"],
 "data": [
  ["O=C(CCCN1CCC(O)(c2ccc(Cl)cc2)CC1)c1ccc(F)cc1", "concentration at 1 h", 116000],
  ["CN(C)CCOC(c1ccccc1)c1ccccc1 [Diphenhydramine]", "concentration at 1 h", 21600]
]}

Value source: paper PMC3797749
